# Test system: MCF-7 (human breast carcinoma cell line)
# protocol: CCK-8 antiproliferative assay, MCF-7
# Assay type: cell-based
# test-context: MCF7, 48 h, read-out: IC50, Mean ± SE, MCF-7
Please respond with reported IC50 for every item in the list.
Numbers only, in nM.

The following compounds have reported results that may help.
COc1cc(C(=O)c2ccc3[nH]ccc3c2)cc2c1OC(C)(C)C=C2 [21a]: 121
COc1cc(C(=O)/C=C/c2cn(C)c3ccccc23)cc2c1OC(C)(C)C=C2: 350
COc1cc(C(=O)c2ccc3c(ccn3C)c2)cc2c1OC(C)(C)C=C2 [21b]: 99

Hi! Can you tell me IC50 for each of these compounds?
1. COc1ccc(C(=O)c2ccc3[nH]ccc3c2)c2c1C=CC(C)(C)O2 [14a]
2. COc1ccc(C(=O)c2cccc3c2ccn3C)c2c1C=CC(C)(C)O2 [11b]
3. COc1ccc(C(=O)c2ccc3c(ccn3C)c2)c2c1C=CC(C)(C)O2 [compound 14b]

Response line:
1: 82; 2: 651; 3: 27

Hi! Can you tell me IC50 for each of these compounds?
1. COc1cc(C(=O)/C=C/c2c[nH]c3ccccc23)cc2c1OC(C)(C)C=C2
2. COc1ccc(/C=C/C(=O)c2ccc(OC)c3c2OC(C)(C)C=C3)cc1
3. COc1ccc(C(=O)c2cccc3[nH]ccc23)c2c1C=CC(C)(C)O2 [compound 11a]
4. COc1ccc(C(=O)c2ccc(OC)c3c2OC(C)(C)C=C3)cc1 [Compd. A, reference compound]
5. COc1cc(C(=O)c2cccc3c2ccn3C)cc2c1OC(C)(C)C=C2 [19b]
6. COc1cc(C(=O)c2cccc3[nH]ccc23)cc2c1OC(C)(C)C=C2 [19a]

Response line:
1. 1550
2. 4530
3. 816
4. 456
5. 1020
6. 1780
